Measured MIC by item
# System: Enterococcus faecalis ATCC 29212 = CCM 4224
# protocol-summary: MIC, microdilution method
# Type: cell-based
# applied-conditions: Enterococcus faecalis
I only need the number, in µg/mL, no unit after it.

Example entries and their recorded answers appear below.
[[record]]
compound = "CCCC/C=C\\CCOP(=O)(CCN(CCCN)CCCN)OCCCCCOP(=O)(CCN(CCCN)CCCN)OCC/C=C\\CCCC (centres unmarked)"
reported_metric = "MIC"
test_result = 2

[[record]]
compound = "CCCCCOP(=O)(CCN(CCCN)CCCN)OCCCCCCCCCCCCCCOP(=O)(CCN(CCCN)CCCN)OCCCCC.Cl.Cl.Cl.Cl.Cl.Cl (centres unmarked)"
reported_metric = "MIC"
test_result = 1

[[record]]
compound = "CCCCOP(=O)(CCN(CCN)CCN)OCCCCCCCCCCOP(=O)(CCN(CCN)CCN)OCCCC.Cl.Cl.Cl.Cl.Cl.Cl (centres unmarked)"
reported_metric = "MIC"
test_result = 2

[[record]]
compound = "CC(C)COP(=O)(CCN(CCCN)CCCN)OCCCCCCCCCCCCOP(=O)(CCN(CCCN)CCCN)OCC(C)C (centres unmarked)"
reported_metric = "MIC"
test_result = 32


Input line: Provide value of MIC for this record tested with Enterococcus faecalis ATCC 29212 = CCM 4224: CCCCOP(=O)(CCN(CCCN)CCCN)OCCCCCCCCCCCCCCOP(=O)(CCN(CCCN)CCCN)OCCCC.Cl.Cl.Cl.Cl.Cl.Cl (centres unmarked)
Output line: 1

Input line: Would you mind doing CCCCCCOP(=O)(CCN(CCCN)CCCN)OCCCCCCCCCCOP(=O)(CCN(CCCN)CCCN)OCCCCCC.Cl.Cl.Cl.Cl (centres unmarked) as well?
Output line: 0.5

Input line: Would you mind doing NCCCN(CCCN)CCP(=O)(OCCCCCCCCCCCCOP(=O)(CCN(CCCN)CCCN)OCCc1ccccc1)OCCc1ccccc1 (centres unmarked) as well?
Output line: 4

Input line: Would you mind doing CCCCOP(=O)(CCN(CCCN)CCCN)OCCCCCCCCCCOP(=O)(CCN(CCCN)CCCN)OCCCC.Cl.Cl.Cl.Cl.Cl.Cl (centres unmarked) as well?
Output line: 32

* * *

# System: Staphylococcus aureus ATCC 29213 = CCM 4223
# protocol-summary: MIC, microdilution method
# Format: cell-based
# applied-conditions: Staphylococcus aureus
Measured MIC by item
I only need the number, in µg/mL, no unit after it.

Example entries and their recorded answers appear below.
[[record]]
compound = "CCCCCOP(=O)(CCN(CCCN)CCCN)OCCCCCCCCCCCCOP(=O)(CCN(CCCN)CCCN)OCCCCC (centres unmarked) [Example 48]"
test_result = 1

[[record]]
compound = "CCCCCOP(=O)(CCN(CCCN)CCCN)OCCCCCCCCOP(=O)(CCN(CCCN)CCCN)OCCCCC.Cl.Cl.Cl.Cl.Cl.Cl (centres unmarked) [Example 37]"
test_result = 1


Input line: Would you mind telling me what MIC value was observed for CCCCCCOP(=O)(CCN(CCN)CCN)OCCCCCCCCOP(=O)(CCN(CCN)CCN)OCCCCCC (centres unmarked) [Example 55] ?
Output line: 2

Input line: Would you mind doing CC(C)COP(=O)(CCN(CCCN)CCCN)OCCCCCCCCCCCCCCOP(=O)(CCN(CCCN)CCCN)OCC(C)C (centres unmarked) [Example 51] as well?
Output line: 2

Input line: Would you mind doing CCCCCCCCCCOP(=O)(CCN(CCCN)CCCN)OCCCCCCCCCCOP(=O)(CCN(CCCN)CCCN)OCCCCCCCCCC (centres unmarked) [Example 45] as well?
Output line: 4

* * *

# Tested on: Enterobacter kobei 3683
# protocol-summary: MIC, microdilution method
# Type: cell-based
# applied-conditions: Enterobacter kobei, 3683
Measured MIC by item

Example entries and their recorded answers appear below.
[[record]]
compound = "CCCCCCOP(=O)(CCN(CCN)CCN)OCCCCCCCCOP(=O)(CCN(CCN)CCN)OCCCCCC (stereo not shown)"
reported_metric = "MIC"
test_result = "> 128 mg/L"

[[record]]
compound = "CCCCOP(=O)(CCN(CCCN)CCCN)OCCCCCCCCCCOP(=O)(CCN(CCCN)CCCN)OCCCC.Cl.Cl.Cl.Cl.Cl.Cl (stereo not shown)"
reported_metric = "MIC"
test_result = "> 128 mg/L"

[[record]]
compound = "CCCCCOP(=O)(CCN(CCCN)CCCN)OCCCCCCCCCCCCOP(=O)(CCN(CCCN)CCCN)OCCCCC (stereo not shown)"
reported_metric = "MIC"
test_result = "1 mg/L"


Input line: Would you mind telling me what MIC value was observed for CC(C)COP(=O)(CCN(CCCN)CCCN)OCCCCCCCCCCCCOP(=O)(CCN(CCCN)CCCN)OCC(C)C (stereo not shown) ?
Output line: > 128 mg/L

Input line: Would you mind doing CCCCCCOP(=O)(CCN(CCCN)CCCN)OCCCCCCCCCCOP(=O)(CCN(CCCN)CCCN)OCCCCCC.Cl.Cl.Cl.Cl (stereo not shown) as well?
Output line: 1 mg/L

* * *

# System: Staphylococcus epidermidis CCM 7221
# protocol-summary: MIC, microdilution method
# Type: cell-based
# applied-conditions: Staphylococcus epidermidis, CCM7221
Measured MIC by item
I only need the number, in µg/mL, no unit after it.

Example entries and their recorded answers appear below.
[[record]]
compound = "CC(C)COP(=O)(CCN(CCCN)CCCN)OCCCCCCCCCCCCOP(=O)(CCN(CCCN)CCCN)OCC(C)C (stereo not drawn)"
reported_metric = "MIC"
test_result = 1

[[record]]
compound = "CCCCOP(=O)(CCN(CCN)CCN)OCCCCCCCCCCOP(=O)(CCN(CCN)CCN)OCCCC.Cl.Cl.Cl.Cl.Cl.Cl (stereo not drawn)"
reported_metric = "MIC"
test_result = 4


Proceed to the following item.
Input line: Provide value of MIC for this record tested with Staphylococcus epidermidis CCM 7221: CCCCOP(=O)(CCN(CCCN)CCCN)OCCCCCCCCCCCCCCOP(=O)(CCN(CCCN)CCCN)OCCCC.Cl.Cl.Cl.Cl.Cl.Cl (stereo not drawn)
Output line: 0.5

* * *

Measured MIC by item
# Test system: Enterobacter kobei 3683
# protocol-summary: MIC, microdilution method
# Assay type: cell-based
# applied-conditions: Enterobacter kobei, 3683
# Description: Disposable microtiter plates are used for testing. […] MIC values are read after 24/48 hours of incubation at 37° C. as the minimum inhibitory concentration of the test substance at which bacterial growth is inhibited. […] MBC is determined by the inoculation method. […] MBC is determined as the lowest concentration that inhibits the visible growth of the bacterium used on agar.
I only need the number, in mg/L, no unit after it.

Example entries and their recorded answers appear below.
[[record]]
compound = "CCCCCOP(=O)(CCN(CCCN)CCCN)OCCCCCCCCCCCCCCOP(=O)(CCN(CCCN)CCCN)OCCCCC.Cl.Cl.Cl.Cl.Cl.Cl (centres unmarked)"
reported_metric = "MIC"
test_result = 2

[[record]]
compound = "CCCCOP(=O)(CCN(CCCN)CCCN)OCCCCCCCCCCCCCCOP(=O)(CCN(CCCN)CCCN)OCCCC.Cl.Cl.Cl.Cl.Cl.Cl (centres unmarked)"
reported_metric = "MIC"
test_result = 8

[[record]]
compound = "CCCCOP(=O)(CCN(CCN)CCN)OCCCCCCCCCCOP(=O)(CCN(CCN)CCN)OCCCC.Cl.Cl.Cl.Cl.Cl.Cl (centres unmarked)"
reported_metric = "MIC"
test_result = 16


Proceed to the following item.
Input line: Would you mind telling me what MIC value was observed for CC(C)COP(=O)(CCN(CCCN)CCCN)OCCCCCCCCCCCCCCOP(=O)(CCN(CCCN)CCCN)OCC(C)C (centres unmarked) ?
Output line: 64
